Values were extracted from the supplement of paper PMC5998384.

Let's look at some sequences and their measured thermal stability score.
test system: HeLa Kyoto; experiment: thermal stability score vs G1/S (z-score of summed log2 fold changes over temperatures); higher = more thermally stable than in G1/S; details: cell cycle stage: early G1 (4.5 h after nocodazole release)
In your answer, state the number alone without any accompanying words.

sequence entry	readout label	recorded number
MEDEMPKTLYVGNLSRDVTEALILQLFSQIGPCKNCKMIMDTAGNDPYCFVEFHEHRHAAAALAAMNGRKIMGKEVKVNWATTPSSQKKDTSSSTVVSTQRSQDHFHVFVGDLSPEITTEDIKAAFAPFGRISDARVVKDMATGKSKGYGFVSFFNKWDAENAIQQMGGQWLGGRQIRTNWATRKPPAPKSTYESNTKQLSYDEVVNQSSPSNCTVYCGGVTSGLTEQLMRQTFSPFGQIMEIRVFPDKGYSFVRFNSHESAAHAIVSVNGTTIEGHVVKCYWGKETLDMINPVQQQNQIGYPQPYGQWGQWYGNAQQIGQYMPNGWQVPAYGMYGQAWNQQGFNQTQSSAPWMGPNYGVQPPQGQNGSMLPNQPSGYRVAGYETQ [TIA1]	thermal stability score	-0.653

# next sequence below
Provide thermal stability score, system HeLa Kyoto, entry MSSRIARALALVVTLLHLTRLALSTCPAACHCPLEAPKCAPGVGLVRDGCGCCKVCAKQLNEDCSKTQPCDHTKGLECNFGASSTALKGICRAQSEGRPCEYNSRIYQNGESFQPNCKHQCTCIDGAVGCIPLCPQELSLPNLGCPNPRLVKVTGQCCEEWVCDEDSIKDPMEDQDGLLGKELGFDASEVELTRNNELIAVGKGSSLKRLPVFGMEPRILYNPLQGQKCIVQTTSWSQCSKTCGTGISTRVTNDNPECRLVKETRICEVRPCGQPVYSSLKKGKKCSKTKKSPEPVRFTYAGCLSVKKYRPKYCGSCVDGRCCTPQLTRTVKMRFRCEDGETFSKNVMMIQSCKCNYNCPHANEAAFPFYRLFNDIHKFRD [CYR61]
5.63

---

test system: HeLa Kyoto; experiment: solubility in G1/S (NP-40 vs SDS abundance) (log2 ratio); higher = more soluble; details: cell cycle stage: G1/S
Let's look at some sequences and their measured solubility in G1/S (log2).
In your answer, state the number alone without any accompanying words.

sequence entry	system tested	recorded number
MPSKSLVMEYLAHPSTLGLAVGVACGMCLGWSLRVCFGMLPKSKTSKTHTDTESEASILGDSGEYKMILVVRNDLKMGKGKVAAQCSHAAVSAYKQIQRRNPEMLKQWEYCGQPKVVVKAPDEETLIALLAHAKMLGLTVSLIQDAGRTQIAPGSQTVLGIGPGPADLIDKVTGHLKLY [PTRH2]	HeLa Kyoto	0.447

# next sequence below
Note down solubility in G1/S (log2) recorded for MERFVVTAPPARNRSKTALYVTPLDRVTEFGGELHEDGGKLFCTSCNVVLNHVRKSAISDHLKSKTHTKRKAEFEEQNVRKKQRPLTASLQCNSTAQTEKVSVIQDFVKMCLEANIPLEKADHPAVRAFLSRHVKNGGSIPKSDQLRRAYLPDGYENENQLLNSQDC [CGGBP1]
0.332

---

test system: HeLa Kyoto; assay: solubility change mitosis vs G1/S (difference of NP-40 vs SDS log2 ratios) (log2 ratio difference); higher = more soluble in mitosis
readout label: solubility change mitosis (log2)
In your answer, state the number alone without any accompanying words.

sequence entry	system tested	readout label	recorded number
MMAIRELKVCLLGDTGVGKSSIVCRFVQDHFDHNISPTIGASFMTKTVPCGNELHKFLIWDTAGQERFHSLAPMYYRGSAAAVIVYDITKQDSFYTLKKWVKELKEHGPENIVMAIAGNKCDLSDIREVPLKDAKEYAESIGAIVVETSAKNAINIEELFQGISRQIPPLDPHENGNNGTIKVEKPTMQASRRCC [RAB31]	HeLa Kyoto	solubility change mitosis (log2)	0.0123

Note down solubility change mitosis (log2) recorded for MSRPRKRLAGTSGSDKGLSGKRTKTENSGEALAKVEDSNPQKTSATKNCLKNLSSHWLMKSEPESRLEKGVDVKFSIEDLKAQPKQTTCWDGVRNYQARNFLRAMKLGEEAFFYHSNCKEPGIAGLMKIVKEAYPDHTQFEKNNPHYDPSSKEDNPKWSMVDVQFVRMMKRFIPLAELKSYHQAHKATGGPLKNMVLFTRQRLSIQPLTQEEFDFVLSLEEKEPS [THYN1]
0.199

Note down solubility change mitosis (log2) recorded for MPHIDNDVKLDFKDVLLRPKRSTLKSRSEVDLTRSFSFRNSKQTYSGVPIIAANMDTVGTFEMAKVLCKFSLFTAVHKHYSLVQWQEFAGQNPDCLEHLAASSGTGSSDFEQLEQILEAIPQVKYICLDVANGYSEHFVEFVKDVRKRFPQHTIMAGNVVTGEMVEELILSGADIIKVGIGPGSVCTTRKKTGVGYPQLSAVMECADAAHGLKGHIISDGGCSCPGDVAKAFGAGADFVMLGGMLAGHSESGGELIERDGKKYKLFYGMSSEMAMKKYAGGVAEYRASEGKTVEVPFKGDVEHTIRDILGGIRSTCTYVGAAKLKELSRRTTFIRVTQQVNPIFSEAC [GMPR2]
-0.137

Note down solubility change mitosis (log2) recorded for MKVLLLKDAKEDDCGQDPYIRELGLYGLEATLIPVLSFEFLSLPSFSEKLSHPEDYGGLIFTSPRAVEAAELCLEQNNKTEVWERSLKEKWNAKSVYVVGNATASLVSKIGLDTEGETCGNAEKLAEYICSRESSALPLLFPCGNLKREILPKALKDKGIAMESITVYQTVAHPGIQGNLNSYYSQQGVPASITFFSPSGLTYSLKHIQELSGDNIDQIKFAAIGPTTARALAAQGLPVSCTAESPTPQALATGIRKALQPHGCC [UROS]
0.14

Note down solubility change mitosis (log2) recorded for MGATGDAEQPRGPSGAERGGLELGDAGAAGQLVLTNPWNIMIKHRQVQRRGRRSQMTTSFTDPAISMDLLRAVLQPSINEEIQTVFNKYMKFFQKAALNVRDNVGEEVDAEQLIQEACRSCLEQAKLLFSDGEKVIPRLTHELPGIKRGRQAEEECAHRGSPLPKKRKGRPPGHILSSDRAAAGMVWKPKSCEPIRREGPKWDPARLNESTTFVLGSRANKALGMGGTRGRIYIKHPHLFKYAADPQDKHWLAEQHHMRATGGKMAYLLIEEDIRDLAASDDYRGCLDLKLEELKSFVLPSWMVEKMRKYMETLRTENEHRAVEAPPQT [DNTTIP1]
-0.0131
